src = paper PMC6917776

- MEASUREMENT_NOTES: CelltiterGlo viability cell assay
- Assay type: cell-based
- CONDITION_LABEL: human, RPMI-8226 cells (multiple myeloma line), 8226, 6 day, 0.03 uM; read-out: viability Replicate 1
PARAMETER: viability at 6 day, 0.03 µM (%)
Numbers only, in %.

What measured viability at 6 day, 0.03 µM goes with COc1cc(OC)cc(-c2noc(N3CCN(C)C4(CCN(c5ccnc(C)c5)CC4)C3)n2)c1 ?
100

---

- MEASUREMENT_NOTES: CelltiterGlo viability cell assay
- Assay type: cell-based
- CONDITION_LABEL: human, CAL851 cells, CAL851, 3 day, 0.1 uM; read-out: viability Replicate 3
- Text: Supplementary Figure 13. […] Viability of (a) Multiple Myeloma lines and (b) Breast Cancer cell lines following 3 or 6 days treatment with […] manufacturer’s instructions as described in the Supplementary methods. Data are normalized to DMSO control. N=3 biological replicates, +/- SEM. Source data are provided as a Source Data […] CelltiterGlo viability cell assay […]
PARAMETER: viability at 3 day, 0.1 µM (%)
Numbers only, in %.

What measured viability at 3 day, 0.1 µM goes with COc1cc(OC)cc(-c2noc(N3CCN(C)C4(CCN(c5ccnc(C)c5)CC4)C3)n2)c1 ?
111

---

- MEASUREMENT_NOTES: CelltiterGlo viability cell assay
- Format: cell-based
- CONDITION_LABEL: human, CAL851 breast cancer cells, CAL851, 3 day, 3 uM; read-out: viability Replicate 2
PARAMETER: viability at 3 day, 3 µM (%)
Numbers only, in %.

What measured viability at 3 day, 3 µM goes with COc1cc(OC)cc(-c2noc(N3CCN(C)C4(CCN(c5ccnc(C)c5)CC4)C3)n2)c1 ?
78.6

---

- MEASUREMENT_NOTES: CelltiterGlo viability cell assay
- Type: cell-based
- CONDITION_LABEL: human, MDA-MB-436 breast cancer cells, MDA MB436, 6 day, 9.5 uM; read-out: viability Replicate 3
PARAMETER: viability at 6 day, 9.5 µM
Please make sure the unit comes right after the number.

What measured viability at 6 day, 9.5 µM goes with COc1cc(OC)cc(-c2noc(N3CCN(C)C4(CCN(c5ccnc(C)c5)CC4)C3)n2)c1 ?
71.9%

---

- MEASUREMENT_NOTES: CelltiterGlo viability cell assay
- Format: cell-based
- CONDITION_LABEL: human, RPMI-8226 multiple myeloma cells, 8226, 3 day, 1 uM; read-out: viability Average
PARAMETER: viability at 3 day, 1 µM (%)
One number for each entry, in %.

What measured viability at 3 day, 1 µM goes with COc1cc(OC)cc(-c2noc(N3CCN(C)C4(CCN(c5ccnc(C)c5)CC4)C3)n2)c1 ?
104

---

- MEASUREMENT_NOTES: CelltiterGlo viability cell assay
- Format: cell-based
- CONDITION_LABEL: human, RPMI-8226 cells, 8226, 3 day, 0.01 uM; read-out: viability Replicate 3
PARAMETER: viability at 3 day, 0.01 µM (%)
Numbers only, in %.

What measured viability at 3 day, 0.01 µM goes with COc1cc(OC)cc(-c2noc(N3CCN(C)C4(CCN(c5ccnc(C)c5)CC4)C3)n2)c1 [MRK-740] ?
97.6

---

- MEASUREMENT_NOTES: CelltiterGlo viability cell assay
- Assay type: cell-based
- CONDITION_LABEL: human, CAL851 breast cancer cells, CAL851, 6 day, 0.1 uM; read-out: viability Average
PARAMETER: viability at 6 day, 0.1 µM (%)
Answers are plain numbers, in %.

What measured viability at 6 day, 0.1 µM goes with COc1cc(OC)cc(-c2noc(N3CCN(C)C4(CCN(c5ccnc(C)c5)CC4)C3)n2)c1 [MRK-740] ?
129

---

- MEASUREMENT_NOTES: CelltiterGlo viability cell assay
- Format: cell-based
- CONDITION_LABEL: human, HCC1143 breast cancer cells, HCC1143, 3 day, 30 uM; read-out: viability Replicate 2
PARAMETER: viability at 3 day, 30 µM
Please make sure the unit comes right after the number.

What measured viability at 3 day, 30 µM goes with COc1cc(OC)cc(-c2noc(N3CCN(C)C4(CCN(c5ccnc(C)c5)CC4)C3)n2)c1 ?
27.1%

---

- MEASUREMENT_NOTES: CelltiterGlo viability cell assay
- Format: cell-based
- CONDITION_LABEL: human, RPMI-8226 multiple myeloma cells, 8226, 6 day, 0.3 uM; read-out: viability Replicate 1
PARAMETER: viability at 6 day, 0.3 µM (%)
One number for each entry, in %.

What measured viability at 6 day, 0.3 µM goes with COc1cc(OC)cc(-c2noc(N3CCN(C)C4(CCN(c5ccnc(C)c5)CC4)C3)n2)c1 ?
97.6

---

- MEASUREMENT_NOTES: CelltiterGlo viability cell assay
- Assay type: cell-based
- CONDITION_LABEL: human, MDA-MB-436 breast cancer cells, MDA MB436, 6 day, 30 uM; read-out: viability Replicate 1
PARAMETER: viability at 6 day, 30 µM

What measured viability at 6 day, 30 µM goes with COc1cc(OC)cc(-c2noc(N3CCN(C)C4(CCN(c5ccnc(C)c5)CC4)C3)n2)c1 ?
34.7%

---

- MEASUREMENT_NOTES: CelltiterGlo viability cell assay
- Format: cell-based
- CONDITION_LABEL: human, RPMI-8226 cells (multiple myeloma line), 8226, 3 day, 9.5 uM; read-out: viability Average
PARAMETER: viability at 3 day, 9.5 µM (%)
Give bare numbers, in %.

What measured viability at 3 day, 9.5 µM goes with COc1cc(OC)cc(-c2noc(N3CCN(C)C4(CCN(c5ccnc(C)c5)CC4)C3)n2)c1 [MRK-740] ?
98.3

---

- MEASUREMENT_NOTES: CelltiterGlo viability cell assay
- Type: cell-based
- CONDITION_LABEL: human, RPMI-8226 multiple myeloma cells, 8226, 6 day, 9.5 uM; read-out: viability Replicate 3
PARAMETER: viability at 6 day, 9.5 µM (%)
One number for each entry, in %.

What measured viability at 6 day, 9.5 µM goes with COc1cc(OC)cc(-c2noc(N3CCN(C)C4(CCN(c5ccnc(C)c5)CC4)C3)n2)c1 ?
85.5

---

- MEASUREMENT_NOTES: CelltiterGlo viability cell assay
- Type: cell-based
- CONDITION_LABEL: human, HCC1806 breast cancer cells, HCC1806, 3 day, 30 uM; read-out: viability Average
PARAMETER: viability at 3 day, 30 µM (%)
One number for each entry, in %.

What measured viability at 3 day, 30 µM goes with COc1cc(OC)cc(-c2noc(N3CCN(C)C4(CCN(c5ccnc(C)c5)CC4)C3)n2)c1 ?
11.6

---

- MEASUREMENT_NOTES: CelltiterGlo viability cell assay
- Assay type: cell-based
- CONDITION_LABEL: human, MDA-MB-436 breast cancer cells, MDA MB436, 3 day, 0.3 uM; read-out: viability Average
PARAMETER: viability at 3 day, 0.3 µM (%)
Give bare numbers, in %.

What measured viability at 3 day, 0.3 µM goes with COc1cc(OC)cc(-c2noc(N3CCN(C)C4(CCN(c5ccnc(C)c5)CC4)C3)n2)c1 ?
94.8

---

- MEASUREMENT_NOTES: CelltiterGlo viability cell assay
- Type: cell-based
- CONDITION_LABEL: human, MDA-MB-436 breast cancer cells, MDA MB436, 3 day, 30 uM; read-out: viability Replicate 1
PARAMETER: viability at 3 day, 30 µM (%)
Numbers only, in %.

What measured viability at 3 day, 30 µM goes with COc1cc(OC)cc(-c2noc(N3CCN(C)C4(CCN(c5ccnc(C)c5)CC4)C3)n2)c1 ?
60.8

---

- MEASUREMENT_NOTES: CelltiterGlo viability cell assay
- Assay type: cell-based
- CONDITION_LABEL: human, HCC1806 breast cancer cells, HCC1806, 3 day, 3 uM; read-out: viability Average
PARAMETER: viability at 3 day, 3 µM (%)
Answers are plain numbers, in %.

What measured viability at 3 day, 3 µM goes with COc1cc(OC)cc(-c2noc(N3CCN(C)C4(CCN(c5ccnc(C)c5)CC4)C3)n2)c1 ?
89.8

---

- MEASUREMENT_NOTES: CelltiterGlo viability cell assay
- Assay type: cell-based
- CONDITION_LABEL: human, CAL851 breast cancer cells, CAL851, 6 day, 0.01 uM; read-out: viability Average
- Excerpt: Supplementary Figure 13. […] Viability of (a) Multiple Myeloma lines and (b) Breast Cancer cell lines following 3 or 6 days treatment with […] manufacturer’s instructions as described in the Supplementary methods. Data are normalized to DMSO control. N=3 biological replicates, +/- SEM. Source data are provided as a Source Data […] CelltiterGlo viability cell assay […]
PARAMETER: viability at 6 day, 0.01 µM

What measured viability at 6 day, 0.01 µM goes with COc1cc(OC)cc(-c2noc(N3CCN(C)C4(CCN(c5ccnc(C)c5)CC4)C3)n2)c1 [MRK-740] ?
113%
